# System: U937 cells
# procedure.text: Human U937 cellular necroptosis assay
# Format: cell-based
# run.conditions: U-937; U937 cells stimulated with 25 ng/mL human TNFalpha and 25 μM z-VAD-FMK; 22 hr; Cell Titer-Glo viability
Param label: returns Yes when IC50 < 2000 nM, returns No otherwise, including exact equality.

// below: answered compounds
compound | test.target | cat
Cc1ccc(Cn2nc3c(c2Cl)CCN(c2cccc(Cl)c2F)C3=O)cc1 [Example 65] | U937 cells | Yes
Cn1cc(-c2cc(Cl)c(F)c(NC(=O)c3n[nH]c(Cc4ccccc4)n3)c2)cn1 [Example 25] | U937 cells | No
O=C(Nc1cc(Cn2cccn2)cc(Cl)c1F)c1ncn(Cc2ccccc2)n1 [Example 99] | U937 cells | No
O=C(Nc1cccc(Cl)c1)c1n[nH]c(Cc2ccccc2)n1 [Example 21] | U937 cells | No
Cc1ccc(Cn2cnc(C(=O)Nc3cccc(Cl)c3F)n2)cn1 [Example 90] | U937 cells | No

Request: Hi there! Is IC50 for O=C(Nc1cccc(Cl)c1F)c1ncn(Cc2ccc(F)cn2)n1 [Example 89] below 2000 nM, do you know?
Result: No

Request: Hi there! Is IC50 for O=C(Nc1cc(F)cc(F)c1F)c1n[nH]c(Cc2ccccc2)n1 [Example 23] below 2000 nM, do you know?
Result: No

Request: Field: below-cutoff. Rule: recorded IC50 strictly less than 2000 nM. Subject: O=C1c2nn(Cc3cccc(F)c3F)c(Cl)c2CCN1c1cc(CO)cc(Cl)c1F [Example 79]
Result: Yes

Request: In plain terms, does Cc1nc(C(=O)Nc2cccc(Cl)c2F)nn1Cc1cnccn1 [Example 4] come in under 2000 nM for IC50?
Result: Yes

Every entry's value here was drawn from patent US11718612B2.
